Biological target: T1, recombinant human LAG-3-ECD-human IgG1 fusion protein (human, UniProt P18627 23-450, biotin-labeled in the MHC class II blocking assays)
T1 construct: extracellular domain; also called LAG-3-huFc; LAG-3-ECD-huFc; not shown: human IgG1 Fc
T1 sequence (looked up): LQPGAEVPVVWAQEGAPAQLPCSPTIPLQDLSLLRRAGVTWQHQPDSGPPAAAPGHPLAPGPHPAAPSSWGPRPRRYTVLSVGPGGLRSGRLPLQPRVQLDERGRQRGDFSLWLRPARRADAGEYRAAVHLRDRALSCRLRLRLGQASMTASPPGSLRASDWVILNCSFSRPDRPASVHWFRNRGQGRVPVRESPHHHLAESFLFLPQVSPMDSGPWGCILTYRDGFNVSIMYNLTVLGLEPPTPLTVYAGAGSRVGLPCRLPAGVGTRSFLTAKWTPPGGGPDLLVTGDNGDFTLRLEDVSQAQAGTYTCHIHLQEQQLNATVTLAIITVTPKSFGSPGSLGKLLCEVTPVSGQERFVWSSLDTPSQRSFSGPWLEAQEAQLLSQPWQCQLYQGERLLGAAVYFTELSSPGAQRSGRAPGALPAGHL
Experiment: ELISA on coated human LAG3 ECD-Fc; EC50 table has no unit, x axis Ab(nM)
Record form. Attribute: pEC50. Fill in for each entry.
For clarity, pEC50 is expressed as the negative log10 of concentration in mol/L.

Bench note: what pEC50 did NLAG3-HDB169-S119 (antibody, human IgG1, V domains shown, Short label tied by its unique suffix) VH: QVQLVQSGAEVKKPGSSVKVSCKASGGTFSSYAISWVRQAPGQGLEWMGGIIPIFGTANYAQKFQGRVTITADESTSTAYMELSSLRSEDTAVYYCAASTLRVPNPPYWGQGTLVTVSS VL: EIVLTQSPGTLSLSPGERATLSCRASQSVSSYLAWYQQKPGQAPRLLIYGISSRATGIPDRFSGSGSGTDFTLTISSLQPEDFATYYCQQANNFPLTFGGGTKLEIKR show? 10.49

What would you report for NLAG3-HDB169-S31 (antibody, human IgG1, V domains shown, Short label tied by its unique suffix) VH: QVQLVQSGAEVKKPGSSVKVSCKASGGTFSSYAISWVRQAPGQGLEWMGGIIPIFGTANYAQKFQGRVTITADESTSTAYMELSSLRSEDTAVYYCARDAGPVGYYGMDVWGQGTTVTVSS VL: AIRMTQSPSTLSASVGDRVTITCRASQGIAGWLAWYQQKPGKAPKLLIYAASSLQSGVPSRFSGSASGTDFTLTISNLQPEDFATYYCQQAKSFPLTFGGGTKVEIKR ? 9.55

Now this one: NLAG3-HDB169-T99 (antibody, human IgG1, V domains shown, Short label tied by its unique suffix) VH: QVQLVQSGAEVKKPGSSVKVSCKASGGTFSSYAISWVRQAPGQGLEWMGGIIPIFGTANYAQKFQGRVTITADESTSTAYMELSSLRSEDTAVYYCVRDLQDWNYGGAAYWGQGTLVTVSS VL: VIWMTQSPSSLSASVGDSVTITCQASRDISNSLSWHQQKPGKAPKLLIYAASSLQSGVPSRFSGSGSGTDFTLTISSLQPEDFATYYCQQTKSFPLTFGGGTKVEIKR 10.19

Also, NLAG3-HDB169-S27 (antibody, human IgG1, V domains shown, Short label tied by its unique suffix) VH: QVQLVQSGAEVKKPGSSVKVSCKASGGTFSSYAISWVRQAPGQGLEWMGGIIPIFGTANYAQKFQGRVTITADESTSTAYMELSSLRSEDTAVYYCTTAAPGSYYLVFHYWGQGTLVTVSS VL: DIQLTQSPSSLSASVGDRVTITCRASQTISSHLNWYQQKPGKAPKVLIYAASSLQSGVPSRFSGSGSGTEFTLTISSLQPDDFATYYCQQGNSFPFTFGPGTKVEIKR please. 9.68
